Just for reference, ChEMBL document CHEMBL3112392 is where these values come from.

List of IC50 values.
Test system: HeLa
Test: Cytotoxicity against human HeLa cells after 48 hrs by MTT assay
Type: functional, cell-based
Report as a plain number; the unit µM is understood.

Lookup: Param readout = IC50; param system = HeLa; param query = CN1CCN(CCOc2ccc(-c3c(-c4ccc(OCCN5CCN(C)CC5)cc4)c4ccccc4oc3=O)cc2)CC1 ; response: value
Found: 60.5

New cases:
Lookup: Param readout = IC50; param system = HeLa; param query = CN1CCN(CCOc2ccc(-c3c(-c4ccccc4)c4ccc(OCCN5CCN(C)CC5)cc4oc3=O)cc2)CC1 ; response: value
Found: 3.68

====

Experiment: Cytotoxicity against mouse skull osteoblasts at 10 uM after 48 hrs by MTT assay relative to control
Format: cell-based
Details: osteoblast
Measured quantity: Activity (%)
Report as a plain number; the unit % is understood.

Example results:
Lookup: Form field: reported Activity of O=c1oc2cc(OCCN3CCCC3)ccc2c(-c2ccccc2)c1-c1ccc(OCCN2CCCC2)cc1
Found: -5.6

Lookup: Now consider O=c1oc2ccccc2c(-c2ccc(OCCN3CCCCC3)cc2)c1-c1ccc(OCCN2CCCCC2)cc1 and answer again.
Found: 1.6

Lookup: Now consider CN1CCN(CCOc2ccc(-c3c(-c4ccccc4)c4ccc(OCCN5CCN(C)CC5)cc4oc3=O)cc2)CC1 and answer again.
Found: 0.6

Lookup: Now consider O=c1oc2ccccc2c(-c2ccc(OCCN3CCCC3)cc2)c1-c1ccc(OCCN2CCCC2)cc1 and answer again.
Found: -0.5

Lookup: Now consider CCN(CC)CCOc1ccc(-c2c(-c3ccccc3)c3ccc(OCCN(CC)CC)cc3oc2=O)cc1 and answer again.
Found: -1.5

New cases:
Lookup: Form field: reported Activity of O=c1oc2cc(OCCN3CCCCC3)ccc2c(-c2ccccc2)c1-c1ccc(OCCN2CCCCC2)cc1
Found: 3.7

Lookup: Now consider CN(C)CCOc1ccc(-c2c(-c3ccccc3)c3ccc(OCCN(C)C)cc3oc2=O)cc1 and answer again.
Found: -0.2

====

System: DNA
Assay: Binding affinity to calf thymus DNA assessed as decrease in intensity of negative band at 20 uM after 10 mins measured at 246 nm wavelength by circular dichroism spectroscopic analysis
Assay type: nucleic-acid assay
Settings: Bos taurus
The source made the active and inactive calls. The rule behind the calls is not given here.
Measured quantity: Activity

Example results:
Lookup: Form field: reported Activity of CCN(CC)CCOc1ccc(-c2c(-c3ccc(OCCN(CC)CC)cc3)c3ccccc3oc2=O)cc1
Found: Active

Lookup: Now consider CCN(CC)CCOc1ccc(-c2c(-c3ccccc3)c3ccc(OCCN(CC)CC)cc3oc2=O)cc1 and answer again.
Found: Active

Lookup: Now consider O=c1oc2ccccc2c(-c2ccc(OCCN3CCCCC3)cc2)c1-c1ccc(OCCN2CCCCC2)cc1 and answer again.
Found: Active

Lookup: Now consider CN1CCN(CCOc2ccc(-c3c(-c4ccc(OCCN5CCN(C)CC5)cc4)c4ccccc4oc3=O)cc2)CC1 and answer again.
Found: Active

New cases:
Lookup: Form field: reported Activity of CN1CCN(CCOc2ccc(-c3c(-c4ccccc4)c4ccc(OCCN5CCN(C)CC5)cc4oc3=O)cc2)CC1
Found: Active

Lookup: Now consider O=c1oc2cc(OCCN3CCCCC3)ccc2c(-c2ccccc2)c1-c1ccc(OCCN2CCCCC2)cc1 and answer again.
Found: Active
